// data source = patent US10251869B2

Biological target: VIM-2 (Pseudomonas aeruginosa)
Construct: made in house; host or cells: E. coli BL21(DE3) pLys, plasmid pET-24a(+)-blaVIM-2-S21
Assay: BTZ inhibition kinetics of nitrocefin hydrolysis by VIM-2
Assay type: biochemical, P. aeruginosa
Conditions: overall dissociation constant of two-step mechanism (E*I)
Assign pKi to each entry below.
One number for each entry, as −log10 of the molar value.

// solved cases for pKi follow
CC1(C)SC2CSC(CS)N2C1C(=O)O [D-VC26] = 7.00
O=C(O)[C@@H]1CS[C@H]2CS[C@H](CS)N21 = 7.40
CC1(C)SC2CSC(CS)N2C1C(=O)O [L-VC26] = 6.60

Then there is this compound:
pKi measured on O=C(O)[C@H]1CS[C@@H]2CS[C@@H](CS)N12 = 6.74

###

Test system: E. coli DH10B pBCSK(−) producing R228M variant
Test: MIC by agar dilution, E. coli DH10B producing VIM-2 R228M
Assay type: cell-based
Settings: Escherichia coli, MHA
Recorded metric: MIC (µg/mL)
One number for each entry, in µg/mL.

CO/N=C(\C(=O)N[C@@H]1C(=O)N2C(C(=O)O)=C(CSc3nc(=O)c(=O)[nH]n3C)CS[C@H]12)c1csc(N)n1 [Ceftriaxone] = 16

List the reported MIC of each compound below.
1. CC(C)(O/N=C(\C(=O)N[C@@H]1C(=O)N2C(C(=O)[O-])=C(C[n+]3ccccc3)CS[C@H]12)c1csc(N)n1)C(=O)O [Ceftazidime]
2. C[C@@H](O)[C@H]1C(=O)N2C(C(=O)O)=C(SCCN=CN)C[C@H]12 [Imipenem]
3. CO/N=C(\C(=O)N[C@@H]1C(=O)N2C(C(=O)O)=C(COC(C)=O)CS[C@H]12)c1csc(N)n1 [Cefotaxime]
4. CO/N=C(\C(=O)N[C@@H]1C(=O)N2C(C(=O)[O-])=C(C[N+]3(C)CCCC3)CS[C@H]12)c1csc(N)n1 [Cefepime]

Reply text:
128
2
16
2

MIC measured on CC1(C)S[C@@H]2[C@H](NC(=O)[C@H](N)c3ccccc3)C(=O)N2[C@H]1C(=O)O [Ampicillin] = 1020

###

Target: VIM-24 (Escherichia coli, UniProt Q5U7L7, R205L)
Construct: which corresponds to cleavage after residues 20 (plus an additional Met residue on the N-terminus); made in house; host or cells: E. coli BL21(DE3) pLys, plasmid pET-24a(+)-blaVIM-24-S21
Test: BTZ inhibition kinetics of nitrocefin hydrolysis by VIM-24
Format: biochemical
Conditions: rate constant for formation of E*I
Recorded metric: k2

O=C(O)[C@H]1CS[C@@H]2CS[C@@H](CS)N12 = 0.07 ± 4 × 10^−3 s−1
CC1(C)SC2CSC(CS)N2C1C(=O)O [L-VC26] = 0.04 ± 2 × 10^−3 s−1
O=C(O)[C@@H]1CS[C@H]2CS[C@H](CS)N21 = 0.06 ± 2 × 10^−3 s−1

Then there is this molecule:
k2 measured on CC1(C)SC2CSC(CS)N2C1C(=O)O [D-VC26] = 0.01 ± 3 × 10^−3 s−1
